System: MDA-MB-468 breast
Experiment Description: NCI tumour cell line growth inhibition, 48 h; in the data active means GI50 below about 0.43 µM; inactive means the rest
Your response should consist of one outcome taken from active, inactive

Examples from the recorded data:
INSERT INTO results (molecule, class_name) VALUES
  ('COc1cccc(/C=N/NC(=S)NC2CC3CCC2C3)c1O (stereo unspecified)', 'inactive'),
  ('Brc1ccc2[nH]cc(-c3nc(-c4c[nH]c5ncccc45)cs3)c2c1', 'inactive'),
  ('COc1ccc2c(C3(c4cn(C)c5cc(OC)ccc45)C(=O)Nc4ccc(Cl)cc43)cn(C)c2c1', 'inactive');

Task: // param item: Cc1cc2cc3ccc(N(C)C)cc3nc2cc1N ; yields the recorded call
Output: active

Task: // param item: COc1ccccc1C1=C(Nc2ccccc2)C(=O)NC1=O ; yields the recorded call
Output: inactive

Task: // param item: CN(Cc1cccc(F)c1)c1ccc(CO)c(Cl)c1 ; yields the recorded call
Output: active
